# experimental_system: CLK1 (Homo sapiens (Human), UniProt P49759)
# Sequence (P49759 whole entry): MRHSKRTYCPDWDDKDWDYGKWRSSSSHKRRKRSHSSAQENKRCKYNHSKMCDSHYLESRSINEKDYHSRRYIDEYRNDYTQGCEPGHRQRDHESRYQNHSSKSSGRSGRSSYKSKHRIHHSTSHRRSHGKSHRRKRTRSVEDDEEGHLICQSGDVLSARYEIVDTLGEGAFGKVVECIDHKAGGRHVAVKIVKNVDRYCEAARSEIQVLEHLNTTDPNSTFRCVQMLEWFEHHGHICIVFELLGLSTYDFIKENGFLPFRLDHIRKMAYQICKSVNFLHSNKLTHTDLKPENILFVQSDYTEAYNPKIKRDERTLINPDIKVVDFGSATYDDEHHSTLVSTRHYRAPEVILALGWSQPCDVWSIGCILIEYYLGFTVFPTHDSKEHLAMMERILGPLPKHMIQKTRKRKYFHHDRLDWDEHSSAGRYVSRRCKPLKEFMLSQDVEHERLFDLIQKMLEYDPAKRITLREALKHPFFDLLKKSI
# run_description: biochemical
# details: read-out: CLK1 (% Inh.), % inhibition at 3 μM
measured_parameter: inhibition at 3 µM (%)

Reference set, count: 2
[
  {
    "compound": "CNC(=O)c1ccc(-c2c[nH]c3nc(Nc4ccc(C(=O)NC5CN(C)C5)cc4OC)nc(OC4CCC(C)(O)CC4)c23)cc1 (centres unmarked)",
    "recorded_value": 101
  },
  {
    "compound": "Cc1nc2ccc(-c3c[nH]c4nc(Nc5cnn(C6CCOCC6)c5Cl)nc(OC5CCCC5)c34)cc2o1",
    "recorded_value": 99
  }
]

[A] CNC(=O)c1ccc(Nc2nc(OCCOC)c3c(-c4ccc5nc(C)oc5c4)c[nH]c3n2)c(OC)c1
[B] COc1cc(C(=O)NC2COC2)ccc1Nc1nc(OC)c2c(-c3cc(C)nc(C)c3)c[nH]c2n1
Prompt line: Two entries are listed, A and B . Which one carries the higher inhibition at 3 µM? Field: selected label. Fill in the label of the entry you choose.
Response line: A

----------
# experimental_system: CLK2 (Homo sapiens (Human))
# Sequence (P49760 whole entry): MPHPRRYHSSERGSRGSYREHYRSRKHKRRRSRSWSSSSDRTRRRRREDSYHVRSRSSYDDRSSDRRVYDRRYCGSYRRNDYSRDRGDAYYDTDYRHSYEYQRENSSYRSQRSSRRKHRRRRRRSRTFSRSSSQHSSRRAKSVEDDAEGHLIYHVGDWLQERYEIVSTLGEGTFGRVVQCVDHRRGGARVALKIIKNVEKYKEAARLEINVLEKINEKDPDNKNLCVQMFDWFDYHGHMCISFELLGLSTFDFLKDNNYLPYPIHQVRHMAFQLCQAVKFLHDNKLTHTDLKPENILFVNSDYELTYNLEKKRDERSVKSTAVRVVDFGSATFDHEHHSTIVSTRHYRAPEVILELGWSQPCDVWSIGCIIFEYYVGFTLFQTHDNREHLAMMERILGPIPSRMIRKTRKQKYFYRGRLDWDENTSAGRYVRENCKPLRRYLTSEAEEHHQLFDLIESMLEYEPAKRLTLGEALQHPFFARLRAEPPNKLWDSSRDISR
# run_description: biochemical
# details: read-out: CLK2 (% Inh.), % inhibition at 3 μM
measured_parameter: inhibition at 3 µM (%)

[
  {
    "compound": "CNC(=O)c1ccc(Nc2nc(OC(C)C)c3c(-c4ccnc(C)c4)c[nH]c3n2)c(OC)c1",
    "experimental_system": "CLK2 (Homo sapiens (Human))",
    "inhibition at 3 µM / %": 103
  },
  {
    "compound": "CNC(=O)c1ccc(Nc2nc(OC(C)C)c3c(-c4ccc(-c5ncc[nH]5)cc4)c[nH]c3n2)c(OC)c1",
    "experimental_system": "CLK2 (Homo sapiens (Human))",
    "inhibition at 3 µM / %": 99
  },
  {
    "compound": "CNC(=O)c1ccc(Nc2nc(OC3CCOCC3)c3c(-c4ccc5nc(C)n(C)c5c4)c[nH]c3n2)c(OC)c1",
    "experimental_system": "CLK2 (Homo sapiens (Human))",
    "inhibition at 3 µM / %": 106
  },
  {
    "compound": "CNC(=O)c1ccc(Nc2nc(OC3CCC(C)(O)CC3)c3c(-c4ccc5nc(C)oc5c4)c[nH]c3n2)c(Cl)c1 (stereo not shown)",
    "experimental_system": "CLK2 (Homo sapiens (Human))",
    "inhibition at 3 µM / %": 101
  }
]

Source listed as patent US9623028B2.
